- Tested on: RH30
- assay: Cell proliferation assay and IC50 measurement (PrestoBlue)
- Assay type: cell-based
- test-settings: PrestoBlue cell viability
- Procedure: FIG. 10A-C show representative data illustrating that AT-301 kills Ewing's, RMS, GBM, AML, and other cancer cells. Cell lines were treated with serial dilutions (2×) of AT-301, and IC50 values of each cell line were determined using PrestoBlue dye for cell viability following manufacturer's protocol (Invitrogen, A13261). See also Table 3. […] Proliferation of adherent cells was determined on the IncuCyte live-cell imaging system (Essen BioScience). […]
pIC50: −log10 of the molar value.

- substance-smiles: "Clc1ccc(CNc2nc(NC3CCCC3)nc3ccccc23)cc1Cl"
  pIC50: 5.53
